Experiment: qHTS assay to identify small molecule agonists of the androgen receptor (AR) signaling pathway in the presence of an antagonist - cell viability counter screen (AID 1259379); note: nearly all actives have a fitted effect of over 25% in size; note: potency is the fitted concentration of half-maximal effect
Condition Info: MDA-kb2 viability, CellTiter-Fluor, 16 h; series mostly up to 92.4 µM
Description: National Center for Advancing Translational Sciences [NCATS] NIH Chemical Genomics Center [NCGC] U.S. Environmental Protection Agency [EPA] National Institutes of Environmental Health Sciences [NIEHS] National Toxicology Program [NTP] U.S. Food and Drug Administration [FDA] Androgen receptor (AR) is an important member of nuclear receptor family. Its signaling plays a critical role in AR-dependent prostate cancer and other androgen related diseases. […]
Results filed as inconclusive are left out. Activity calls are given as the source filed them. Calls come from the whole dose curve; as a rule, active = well fitted cell-killing curve with a large enough effect in the repeat runs; inconclusive = weak or mixed curves, or effect the other way; inactive = flat fitted curve, though single readings scatter.
Outcome Measure: Potency

Recorded Potency, per entry:
COC(=O)C(C)N(C(=O)c1ccco1)c1c(C)cccc1C (configuration not stated) | inactive
CCOP(=O)(OCC)Oc1cc(C)nc(C(C)C)n1 | inactive
CC(C)[C@@H](Nc1ccc(C(F)(F)F)cc1Cl)C(=O)OC(C#N)c1cccc(Oc2ccccc2)c1 (some centres not stated) | inactive
NC1CCC(CC2CCC(N)CC2)CC1 (configuration not stated) | 60.1 µM (active)
Fc1ccc(C(OCCN2CCN(CCCc3ccccc3)CC2)c2ccc(F)cc2)cc1 | 26.6 µM (active)

Q. # query: Potency of entry CC(C)C(Nc1ccc(C(F)(F)F)cc1Cl)C(=O)OC(C#N)c1cccc(Oc2ccccc2)c1 (configuration not stated)
A. inactive

###

Experiment: Human pregnane X receptor (PXR) small molecule agonists, qHTS cell viability counter screen (AID 1346977); note: nearly all actives have a fitted effect of over 50% in size
Condition Info: PXR-Luc HepG2 viability, CellTiter-Fluor, 24 h; series mostly up to 92.4 µM
Results filed as inconclusive are left out. Calls of active or inactive are those of the source. Calls come from the whole dose curve; as a rule, active = well fitted cell-killing curve with a large enough effect in the repeat runs; inconclusive = weak or mixed curves, or effect the other way; inactive = flat fitted curve, though single readings scatter.
Outcome Measure: outcome

CC(C)[C@@H](Nc1ccc(C(F)(F)F)cc1Cl)C(=O)OC(C#N)c1cccc(Oc2ccccc2)c1 (stereo partly drawn) | inactive
COc1c2c(cc3c1OCO3)CCN(C)C2 | inactive
CC(Cc1ccc2c(c1)OCO2)NO (stereo not drawn) | inactive

###

Experiment: A CellTox Green Cytotoxicity Assay to monitor cytotoxicity in HepG2 cells - 16 hour (AID 1224876); note: nearly all actives have a fitted effect of over 45% in size
Condition Info: CellTox Green fluorescence; series mostly up to 76.8 µM
Records with an inconclusive call do not appear. Calls of active or inactive are those of the source. Calls come from the whole dose curve; as a rule, active = well fitted activation curve with a large enough effect in the repeat runs; inconclusive = weak or mixed curves; inactive = flat fitted curve, though single readings scatter.
Outcome Measure: outcome

N#Cc1c[nH]cc1-c1cccc2c1OC(F)(F)O2 | inactive
CCCCCCC[CH2][Sn]([Cl])([Cl])[CH2]CCCCCCC | inactive
O=C(CCCCl)c1ccc(F)cc1 | inactive

###

Experiment: Caspase-3/7 induction in CHO-K1 cells by small molecules, qHTS cell viability counter screen (AID 1346979); note: nearly all actives have a fitted effect of over 35% in size
Condition Info: CellTiter-Fluor fluorescence, 17 h; series mostly up to 92.4 µM
From the text: National Center for Advancing Translational Sciences [NCATS] NIH Chemical Genomics Center [NCGC] U.S. Environmental Protection Agency [EPA] National Institutes of Environmental Health Sciences [NIEHS] National Toxicology Program [NTP] U.S. Food and Drug Administration [FDA] Apoptosis is a process of programmed cell death and plays a central role in the development of multicellular organisms. […]
Results filed as inconclusive are left out. Calls of active or inactive are those of the source. Calls come from the whole dose curve; as a rule, active = well fitted cell-killing curve with a large enough effect in the repeat runs; inconclusive = weak or mixed curves, or effect the other way; inactive = no such curve, though single readings can be large or run the other way.
// one of active, inactive, no free text

Answered examples (5):
CNN | inactive
C=CCBr | inactive
O=C(O)CCCCCCNC1c2ccccc2CCc2ccccc21 | inactive
O=[N+]([O-])c1ccccc1-c1ccccc1 | inactive
C[N+]1(C)[C@@H]2CC[C@H]1CC(OC(=O)C(CO)c1ccccc1)C2 (stereo not given in full) | inactive

Q. Hi, do you know how CCCCc1ccccc1 came out in this test?
A. inactive

Q. # outcome recorded in this test, key = COc1ccc2c(c1OC)C(=O)O[C@@H]2[C@H]1c2cc3c(cc2CCN1C)OCO3
A. active

Q. What was the test verdict on O=C(NC(=O)c1c(F)cccc1F)Nc1ccc(Oc2ccc(C(F)(F)F)cc2Cl)cc1F ?
A. active

Q. Look up the recorded call for O=[N+]([O-])c1cc(C(F)(F)F)c(Cl)c([N+](=O)[O-])c1Nc1ncc(C(F)(F)F)cc1Cl in this test.
A. active

###

Target Of Assay: Glucocorticoid receptor (Homo sapiens) (UniProt P04150)
Sequence (P04150 whole entry, looked up): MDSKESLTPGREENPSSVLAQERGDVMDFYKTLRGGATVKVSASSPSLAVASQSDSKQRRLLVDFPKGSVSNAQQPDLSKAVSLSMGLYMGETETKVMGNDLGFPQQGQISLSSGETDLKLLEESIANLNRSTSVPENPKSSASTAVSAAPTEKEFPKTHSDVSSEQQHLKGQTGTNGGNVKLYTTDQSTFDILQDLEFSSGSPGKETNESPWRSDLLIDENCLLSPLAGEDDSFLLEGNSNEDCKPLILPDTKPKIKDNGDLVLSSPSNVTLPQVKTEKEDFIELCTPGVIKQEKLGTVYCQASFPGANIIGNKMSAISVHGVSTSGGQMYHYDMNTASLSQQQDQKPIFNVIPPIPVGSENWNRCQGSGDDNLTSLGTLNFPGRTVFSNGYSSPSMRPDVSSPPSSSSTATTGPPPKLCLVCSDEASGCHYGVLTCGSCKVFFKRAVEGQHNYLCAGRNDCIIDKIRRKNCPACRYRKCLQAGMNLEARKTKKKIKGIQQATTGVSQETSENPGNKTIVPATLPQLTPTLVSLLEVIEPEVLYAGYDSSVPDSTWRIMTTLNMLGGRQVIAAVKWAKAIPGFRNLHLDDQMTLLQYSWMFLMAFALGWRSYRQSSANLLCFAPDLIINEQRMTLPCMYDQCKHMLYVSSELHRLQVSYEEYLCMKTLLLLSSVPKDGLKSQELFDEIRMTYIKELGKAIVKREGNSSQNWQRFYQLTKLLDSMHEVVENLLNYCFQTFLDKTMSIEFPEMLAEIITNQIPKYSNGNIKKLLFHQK
Experiment: qHTS assay to identify small molecule antagonists of the glucocorticoid receptor (GR) signaling pathway (AID 720692)
Condition Info: GR-bla HeLa, beta-lactamase FRET ratio, dexamethasone-stimulated, 18 h; series mostly up to 58.5 µM
Records with an inconclusive call do not appear. The source made the active and inactive calls. Calls come from the whole dose curve; as a rule, active = well fitted inhibition curve with a large enough effect in the signal ratio in the repeat runs (not every such curve was filed as active); inconclusive = weak or mixed curves, or effect the other way; inactive = no such curve, though single readings can be large or run the other way; the % refers to the signal ratio.
Outcome field: choose from active, inactive

# count of solved cases: 3
Brc1cccc(-c2ccccc2)c1 | inactive
N#Cc1c[nH]cc1-c1cccc2c1OC(F)(F)O2 | active
CO/N=C(/C1=NOCCO1)c1ccccc1Oc1ncnc(Oc2ccccc2Cl)c1F | inactive

Below: the item to evaluate.
Q. Test call for this compound, please: CCN(CC)CCc1c[nH]c2ccccc12
A. inactive

###

Target Of Assay: Thyrotropin-releasing hormone receptor (Homo sapiens)
Experiment: qHTS assay to identify small molecule antagonists of the thyrotropin-releasing hormone receptor (TRHR) signaling pathway (AID 1346877)
Condition Info: TRHR-HEK293, TRH-induced calcium fluorescence, antagonist mode; series mostly up to 51.3 µM
The source made the active and inactive calls. The call rests on the fitted dose curve; in most records, active means well fitted inhibition curve with a large enough effect in the repeat runs (not every such curve was filed as active); inconclusive means weak or mixed curves; inactive means flat fitted curve, though single readings scatter.
// one of active, inactive, no free text

COC(=O)/C=C(\C)OP(=O)(OC)OC | inactive
CC(=O)[O][Sn]([c]1ccccc1)([c]1ccccc1)[c]1ccccc1 | active
O=c1[nH]c2cc(Cl)ccc2n1C1CCNCC1 | inactive
O=[N+]([O-])c1cccc2cccc([N+](=O)[O-])c12 | inactive
Oc1cccc(Cl)c1Cl | inactive

Q. Lab log entry: COc1ccc(Cc2nccc3cc(OC)c(OC)cc23)cc1OC — outcome as called in the assay?
A. inactive

Q. // outcome(item) with item = Clc1ccc(C2(Cn3cncn3)OCCO2)c(Cl)c1
A. inactive

Q. Outcome logged for Nc1c(Cl)c(Cl)c(Cl)c(Cl)c1Cl in this assay:
A. inactive

Q. # fetch the recorded call for CN1C2CCC(C)(C)C1CC(OC(=O)C(O)(c1cccs1)c1cccs1)C2 (configuration not stated) here
A. inactive

Q. How was O=Cc1ccccc1 classified in this test?
A. inactive

Q. // param item: ClC1=C(Cl)[C@]2(Cl)[C@H]3[C@H]([C@@H]4C=C[C@H]3C4)[C@@]1(Cl)C2(Cl)Cl ; yields the recorded call
A. inactive

Q. // outcome(item) with item = Nc1ccccc1-c1ccccc1
A. inactive

###

Experiment: qHTS assay for small molecules that induce genotoxicity in human embryonic kidney cells expressing luciferase-tagged ATAD5 - cell viability (AID 651634); note: nearly all actives have a fitted effect of over 25% in size
Condition Info: HEK293T ATAD5-luc cells viability, CellTiter-Fluor, 15.5 h; series mostly up to 83.3 µM
Results filed as inconclusive are left out. Activity calls are given as the source filed them. The call rests on the fitted dose curve.
Write down one outcome, taken from active, inactive

CCC(C)c1cccc(C(C)CC)c1O (stereo not given) | inactive
Fc1ccc(C(OCCN2CCN(CCCc3ccccc3)CC2)c2ccc(F)cc2)cc1 | active
CCOC(=O)CCN(SN(C)C(=O)Oc1cccc2c1OC(C)(C)C2)C(C)C | inactive
c1ccc(Nc2ccc(Nc3ccccc3)cc2)cc1 | inactive
Cc1nn(-c2cc(NS(C)(=O)=O)c(Cl)cc2Cl)c(=O)n1C(F)F | inactive
Cc1ccc2cc3c(ccc4ccccc43)c3c2c1CC3 | inactive
O=S1OCC2C(CO1)C1(Cl)C(Cl)=C(Cl)C2(Cl)C1(Cl)Cl (stereo not given) | inactive
C=CC(=O)[O][Sn]([CH2]CCC)([CH2]CCC)[CH2]CCC | active

Q. Test call for this compound, please: C=CCOC(=O)c1ccccc1N
A. inactive

Q. So what was the verdict on CCCCc1ccccc1 in this test?
A. inactive

Q. Any idea what this test logged for CCCCCCCCCCCCCCn1cc[n+](C)c1 ?
A. active

Q. Dear colleague, could you share the recorded outcome for COC(=O)N(OC)c1ccccc1COc1ccn(-c2ccc(Cl)cc2)n1 when you have a moment?
A. inactive

###

Target Of Assay: Acetylcholinesterase (Homo sapiens) (UniProt P22303)
Sequence (P22303 whole entry, looked up): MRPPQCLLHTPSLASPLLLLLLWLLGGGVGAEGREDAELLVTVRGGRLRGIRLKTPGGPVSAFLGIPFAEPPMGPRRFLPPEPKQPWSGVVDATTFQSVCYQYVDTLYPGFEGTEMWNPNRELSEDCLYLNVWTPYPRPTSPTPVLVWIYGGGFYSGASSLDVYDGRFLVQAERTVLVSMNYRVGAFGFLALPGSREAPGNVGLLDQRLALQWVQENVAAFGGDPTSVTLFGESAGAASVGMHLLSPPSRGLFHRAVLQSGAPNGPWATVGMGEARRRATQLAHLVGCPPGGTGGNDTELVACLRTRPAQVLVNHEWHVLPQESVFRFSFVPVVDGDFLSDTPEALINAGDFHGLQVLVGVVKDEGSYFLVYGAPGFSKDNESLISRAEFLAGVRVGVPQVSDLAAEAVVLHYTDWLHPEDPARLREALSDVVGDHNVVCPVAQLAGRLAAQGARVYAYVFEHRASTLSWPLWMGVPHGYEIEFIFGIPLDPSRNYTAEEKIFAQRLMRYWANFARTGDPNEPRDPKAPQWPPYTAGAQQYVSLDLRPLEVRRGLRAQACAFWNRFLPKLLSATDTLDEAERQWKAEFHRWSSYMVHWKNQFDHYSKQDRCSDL
Experiment: Acetylcholinesterase (AChE) small molecule antagonists: colormetric cell-based qHTS assay (AID 1347395); note: nearly all actives have a fitted effect of over 30% in size
Condition Info: SH-SY5Y cells AChE activity, colorimetric (Ellman); series mostly up to 115 µM
Results filed as inconclusive are left out. Active and inactive are the calls of the source. The call rests on the fitted dose curve.
Outcomes you can answer with include only these: Y = active, N = inactive

Sample answers from the record:
CCO/N=C(\CC)C1=C(O)CC(c2c(C)cc(C)cc2C)CC1=O (stereo unspecified) | N
COP(=S)(OC)Oc1ccc([N+](=O)[O-])c(C)c1 | Y
N#CCCl | N
CCCCN(CCCC)C(=S)S | N
COP(=S)(NC(C)C)Oc1ccc(C)cc1[N+](=O)[O-] (stereo unspecified) | N
CCC(C)Br (stereo unspecified) | N
N#CC(C#N)=NNc1cccc(Cl)c1 | N
CC(C)[C@@H](Nc1ccc(C(F)(F)F)cc1Cl)C(=O)OC(C#N)c1cccc(Oc2ccccc2)c1 (stereo partly specified) | N

Q. Returns: the outcome recorded for C[C@]12C/C(=C/O)C(=O)C[C@@H]1CC[C@@H]1[C@@H]2CC[C@@]2(C)[C@H]1CC[C@]2(C)O in this assay.
A. N

Q. What did this assay record as the result for O=[N+]([O-])c1cc(C(F)(F)F)c(Cl)c([N+](=O)[O-])c1Nc1ncc(C(F)(F)F)cc1Cl ?
A. N

Q. Give the logged outcome of this assay for the following compound: Cc1cc2c3c(c1)C(c1ccccc1)=N[C@@H](NC(=O)c1ccncc1)C(=O)N3CC2
A. N
